Target: T1, recombinant human CXCR3 (human, UniProt P49682 1-368, limits assumed)
T1 construct: also called C-X-C motif chemokine receptor 3
T1 sequence (looked up): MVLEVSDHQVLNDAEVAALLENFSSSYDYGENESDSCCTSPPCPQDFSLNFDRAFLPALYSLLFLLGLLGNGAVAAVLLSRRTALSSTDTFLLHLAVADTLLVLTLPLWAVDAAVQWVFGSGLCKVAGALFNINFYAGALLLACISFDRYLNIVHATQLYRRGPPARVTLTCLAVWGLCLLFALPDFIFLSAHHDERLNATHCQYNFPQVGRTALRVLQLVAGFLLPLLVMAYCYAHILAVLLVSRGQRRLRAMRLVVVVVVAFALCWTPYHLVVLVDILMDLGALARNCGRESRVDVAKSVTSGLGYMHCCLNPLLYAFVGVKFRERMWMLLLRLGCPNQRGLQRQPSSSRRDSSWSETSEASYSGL
Experiment: binding kinetics; method and antigen not given
quantity.measured: kon (M⁻¹ s⁻¹)
The answer is to be given in M⁻¹ s⁻¹; state only the numeric part.

Answered cases to consult:
[
  {
    "binder": "humanized clone 53 HuAntibody 29 (antibody, V domains shown, humanized anti-human CXCR3 mAb) VH: EVQLLESGGGLVQPGGSLRLSCAASGFTFTSYAMSWVRQAPGKGLEWVATISHGGTYTYYPDSVKGRFTISRDNAKNTLYLQMNSLRAEDTAVYYCARHPIYSGNYQGYFDYWGQGTLVTVSS VL: DIQLTQSPSFLSASVGDRVTITCRASSGVNYLYWYQQKPGKAPKLWIYFTSTLAPGVPSRFSGSGSGNEYTLTISSLQPEDFATYYCQQFTSSPYTFGQGTKLEIK",
    "quantity.measured": "kon",
    "unit.text": "M⁻¹ s⁻¹",
    "recorded.value": 115000
  },
  {
    "binder": "humanized clone 53 HuAntibody 24 (antibody, V domains shown, humanized anti-human CXCR3 mAb) VH: EVQLLESGGGLVQPGGSLRLSCAASGFTFTSYAMSWVRQAPGKGLEWVATISHGGTYTYYPDSVKGRFTISRDNAKNTLYLQMNSLRAEDTAMYYCARHPIYSGNYQGYFDYWGQGTLVTVSS VL: DIQLTQSPSFLSASVGDRVTITCRASSGVNYLYWYQQKPGKAPKLWIYFTSTLAPGVPSRFSGSGSGNEYTLTISSLQPEDFATYYCQQFTSSPYTFGGGTKLEIK",
    "quantity.measured": "kon",
    "unit.text": "M⁻¹ s⁻¹",
    "recorded.value": 101000
  },
  {
    "binder": "humanized clone 53 HuAntibody 34 (antibody, V domains shown, humanized anti-human CXCR3 mAb) VH: EVQLLESGGGLVQPGGSLRLSCAASGFTFTSYAMSWVRQAPGKGLEWVAVISHGGTYTYYADSVKGRFTISRDNAKNTLYLQMNSLRAEDTAVYYCARHPIYSGNYQGYFDYWGQGTLVTVSS VL: DIQLTQSPSFLSASVGDRVTITCRASSGVNYLYWYQQKPGKAPKLWIYFTSTLASGVPSRFSGSGSGNEYTLTISSLQPEDFATYYCQQFTSSPYTFGQGTKLEIK",
    "quantity.measured": "kon",
    "unit.text": "M⁻¹ s⁻¹",
    "recorded.value": 88900
  },
  {
    "binder": "humanized clone 53 HuAntibody 23 (antibody, V domains shown, humanized anti-human CXCR3 mAb) VH: EVQLLESGGGLVQPGGSLRLSCAASGFTFTSYAMSWVRQAPGKGLEWVAVISHGGTYTYYADSVKGRFTISRDNAKNTLYLQMNSLRAEDTAVYYCARHPIYSGNYQGYFDYWGQGTLVTVSS VL: DIQLTQSPSFLSASVGDRVTITCRASSGVNYLYWYQQKPGKAPKLWIYFTSTLAPGVPSRFSGSGSGNEYTLTISSLQPEDFATYYCQQFTSSPYTFGGGTKLEIK",
    "quantity.measured": "kon",
    "unit.text": "M⁻¹ s⁻¹",
    "recorded.value": 75600
  },
  {
    "binder": "humanized clone 53 HuAntibody 31 (antibody, V domains shown, humanized anti-human CXCR3 mAb) VH: EVQLLESGGGLVQPGGSLRLSCAASGFTFTSYAMSWVRQAPGKGLEWVATISHGGTYTYYPDSVKGRFTISRDNAKNTLYLQMNSLRAEDTAMYYCARHPIYSGNYQGYFDYWGQGTLVTVSS VL: DIQLTQSPSFLSASVGDRVTITCRASSGVNYLYWYQQKPGKAPKLWIYFTSTLASGVPSRFSGSGSGNEYTLTISSLQPEDFATYYCQQFTSSPYTFGGGTKLEIK",
    "quantity.measured": "kon",
    "unit.text": "M⁻¹ s⁻¹",
    "recorded.value": 111000
  },
  {
    "binder": "humanized clone 53 HuAntibody 26 (antibody, V domains shown, humanized anti-human CXCR3 mAb) VH: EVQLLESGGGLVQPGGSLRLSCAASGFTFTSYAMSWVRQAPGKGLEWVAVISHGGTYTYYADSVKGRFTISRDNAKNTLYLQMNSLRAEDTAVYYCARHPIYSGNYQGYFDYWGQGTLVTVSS VL: DIQLTQSPSFLSASVGDRVTITCRASSGVNYLYWYQQKPGKAPKLWIYFTSTLAPGVPSRFSGSGSGNEYTLTISSLQPEDFATYYCQQFTSSPYTFGQGTKLEIK",
    "quantity.measured": "kon",
    "unit.text": "M⁻¹ s⁻¹",
    "recorded.value": 101000
  }
]

# evaluate next
Tell me the measured kon of humanized clone 53 HuAntibody 27 (antibody, V domains shown, humanized anti-human CXCR3 mAb) VH: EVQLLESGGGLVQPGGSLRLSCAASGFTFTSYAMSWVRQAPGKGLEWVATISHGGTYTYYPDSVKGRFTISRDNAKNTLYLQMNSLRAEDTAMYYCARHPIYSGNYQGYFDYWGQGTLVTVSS VL: DIQLTQSPSFLSASVGDRVTITCRASSGVNYLYWYQQKPGKAPKLWIYFTSTLAPGVPSRFSGSGSGNEYTLTISSLQPEDFATYYCQQFTSSPYTFGQGTKLEIK , please. 113000
